For each record, write down the corresponding pIC50.
Tested on: SNU-398
MEASUREMENT PROTOCOL: Cytotoxicity against human SNU-398 cells assessed as cell growth inhibition incubated for 72 hrs by SRB assay
Assay type: functional, cell-based
EXPERIMENTAL PARAMETERS: SNU-398, 72 h
# log scale: pIC50 equals minus log10 of the concentration in mol/L

Consider the molecule COc1ccc(N2CCN(c3ncnc4c3ncn4C3CCCC3)CC2)cc1 . State its measured pIC50.
6.52

Consider the molecule Cc1ccc(N2CCN(c3ncnc4c3ncn4C3CCCC3)CC2)cc1 . State its measured pIC50.
5.72

Consider the molecule COc1ccc(S(=O)(=O)N2CCN(c3ncnc4c3ncn4C3CCCC3)CC2)cc1 . State its measured pIC50.
5.16

Consider the molecule Nc1nc(F)nc2c1ncn2[C@@H]1O[C@H](CO)[C@@H](O)[C@@H]1O [FLUDARABINE] . State its measured pIC50.
6.70

Consider the molecule Fc1ccc(N2CCN(c3ncnc4c3ncn4C3CCCC3)CC2)cc1 . State its measured pIC50.
6.00

Consider the molecule Clc1ccc(N2CCN(c3ncnc4c3ncn4C3CCCC3)CC2)cc1Cl . State its measured pIC50.
6.70

Consider the molecule c1ccc(N2CCN(c3ncnc4c3ncn4C3CCCC3)CC2)cc1 . State its measured pIC50.
5.92

Consider the molecule CC(C)(C)c1ccc(-c2ncnc3c2ncn3C2CCCC2)cc1 . State its measured pIC50.
5.74

Consider the molecule Clc1ccc(N2CCN(c3ncnc4c3ncn4C3CCCC3)CC2)cc1 . State its measured pIC50.
5.74

Consider the molecule O=S(=O)(c1ccc(Br)cc1)N1CCN(c2ncnc3c2ncn3C2CCCC2)CC1 . State its measured pIC50.
5.40

Consider the molecule O=S(=O)(c1ccc(F)cc1)N1CCN(c2ncnc3c2ncn3C2CCCC2)CC1 . State its measured pIC50.
5.10

Consider the molecule c1ccc(Oc2ccc(-c3ncnc4c3ncn4C3CCCC3)cc2)cc1 . State its measured pIC50.
6.70
